- System: hepatic disorder caused by carbon tetrachloride
- protocol-summary: Effect of suppressing hepatic disorder caused by carbon tetrachloride (Test Example 1)
- Assay type: in vivo, mice (dd-strain, male)
- Set-up: key: 0 = healthy, 2 = slight, 4 = evident injury, 6 = serious injury
- conditions-used: 30 mg/kg p.o., 6 h before CCl4 0.05 ml/kg p.o.; 24 h after CCl4; mean of five mice; 0 healthy, 2 slightly affected, 4 evidently observed injury, 6 serious injury
Reported Liver injury index by item:

compound	Liver injury index
CCOC(=O)C1C(=O)C(=C2SC3C(S2)N(C)CCN3C)C(=O)CC1c1ccc(C)cc1 (stereo not drawn)	1.5
Cc1ccc(C2CC(=O)C(=C3SC4N(C)CCN(C)C4(C)S3)C(=O)C2)cc1 (stereo not drawn)	0
CCN1CCN(CC)C2SC(=C3C(=O)CC(C)(C)CC3=O)SC21 (stereo not drawn)	0
CN1CCN(C)C2SC(=C3C(=O)CC(c4ccccc4Cl)CC3=O)SC21 (stereo not drawn)	0.3
Cc1ccccc1C1CC(=O)C(=C2SC3C(S2)N(C)CCN3C)C(=O)C1 (stereo not drawn)	0.4
COc1ccc(C2CC(=O)C(=C3SC4N(C)CCN(C)C4(C)S3)C(=O)C2)cc1 (stereo not drawn)	0.1
CCCN1CCN(CCC)C2SC(=C3C(=O)CC(c4ccc(OC)cc4)CC3=O)SC21 (stereo not drawn)	0.2
CCC(C)C1CC(=O)C(=C2SC3C(S2)N(C)CCN3C)C(=O)C1 (stereo not drawn)	0.1
COc1ccc(C2CC(=O)C(=C3SC4NCCNC4S3)C(=O)C2)cc1 (stereo not drawn)	0.1

---

- protocol-summary: acute oral toxicity (LD50)
- conditions-used: in vivo, male rat

compound	LD50
COc1ccc(C2CC(=O)C(=C3SC4C(S3)N(C)CCN4C)C(=O)C2)cc1 (stereo not shown)	> 1000 mg/kg

---

- System: hepatic disorder caused by carbon tetrachloride
- protocol-summary: Effect of suppressing hepatic disorder caused by carbon tetrachloride (Test Example 1)
- Type: in vivo, mice (dd-strain, male)
- Design: key: 0 = healthy, 2 = slight, 4 = evident injury, 6 = serious injury
- conditions-used: 30 mg/kg p.o., 6 h before CCl4 0.05 ml/kg p.o.; 24 h after CCl4; mean of five mice; 0 healthy, 2 slightly affected, 4 evidently observed injury, 6 serious injury
attribute-measured: Liver injury index

molecule	data-value
CCOC(=O)C1C(=O)C(=C2SC3C(S2)N(C)CCN3C)C(=O)CC1c1ccccc1Cl (stereo not drawn)	1.7
CN1CCNC2SC(=C3C(=O)CC(c4cccs4)CC3=O)SC21 (stereo not drawn)	0
CN1CCN(C)C2(C)SC(=C3C(=O)CCCC3=O)SC12 (stereo not drawn)	0.5
Cc1ccc(C2CC(=O)C(=C3SC4NCC(C)NC4S3)C(=O)C2)cc1 (stereo not drawn)	0.2
COc1ccc(C2CC(=O)C(=C3SC4C(S3)N(C)CCN4C)C(=O)C2)cc1 (stereo not drawn) [compound 55]	0.3
CN1CCN(C)C2SC(=C3C(=O)CC(c4ccc(F)cc4)CC3=O)SC21 (stereo not drawn)	1.5
CCCN1CCN(CCC)C2SC(=C3C(=O)CC(c4ccccc4)CC3=O)SC21 (stereo not drawn)	0.2
CCOc1ccc(C2CC(=O)C(=C3SC4C(S3)N(CC)CCN4CC)C(=O)C2)cc1 (stereo not drawn)	1.5
CN1CCN(C)C2SC(=C3C(=O)CC(C4CCCCC4)CC3=O)SC21 (stereo not drawn)	1.0

---

Reported Liver injury index by item:
- Test system: hepatic disorder caused by carbon tetrachloride
- protocol-summary: Effect of suppressing hepatic disorder caused by carbon tetrachloride (Test Example 1)
- Type: in vivo, mice (dd-strain, male)
- Parameters: key: 0 = healthy, 2 = slight, 4 = evident injury, 6 = serious injury
- conditions-used: 30 mg/kg p.o., 6 h before CCl4 0.05 ml/kg p.o.; 24 h after CCl4; mean of five mice; 0 healthy, 2 slightly affected, 4 evidently observed injury, 6 serious injury
- Method: Effect of suppressing hepatic disorder caused by carbon tetrachloride. […] The animals were sacrificed 24 hours after the administration of carbon tetrachloride, and the extent of liver injury was examined. […] The plasma glutamic pyruvic transminase (GPT) activity was determined according to the method of Reitman-Frankel. […] When the GPT activity was 2,000 units or higher, or further determination was made, the activity was calculated as 2,000 units for reasons of convenience.
attribute-measured: Liver injury index

molecule	data-value
CC1(C)CC(=O)C(=C2SC3NCCNC3(C)S2)C(=O)C1 (stereo not drawn)	1.0
COc1ccc(C2CC(=O)C(=C3SC4NCCNC4(C)S3)C(=O)C2)cc1 (stereo not drawn)	0.4
CCN1CCN(CC)C2SC(=C3C(=O)CC(c4ccc(OC)cc4)CC3=O)SC21 (stereo not drawn)	2.5
CN1CCN(C)C2SC(=C3C(=O)CC(C)(C)CC3=O)SC21 (stereo not drawn)	0
CCN1CCN(CC)C2SC(=C3C(=O)CCCC3=O)SC21 (stereo not drawn)	0.4
CCc1ccc(C2CC(=O)C(=C3SC4C(S3)N(C)CCN4C)C(=O)C2)cc1 (stereo not drawn)	0.3
Cc1ccc(C2CC(=O)C(=C3SC4C(S3)N(C)CCN4C)C(=O)C2)cc1 (stereo not drawn)	0.2
CC1CNC2SC(=C3C(=O)CC(C)(C)CC3=O)SC2N1 (stereo not drawn)	0.4
CCOC(=O)C1C(=O)C(=C2SC3C(S2)N(C)CCN3C)C(=O)CC1c1ccc(OCC)cc1 (stereo not drawn)	0
CN1CCN(C)C2(C)SC(=C3C(=O)CC(c4ccco4)CC3=O)SC12 (stereo not drawn)	0
CCCN1CCN(CCC)C2SC(=C3C(=O)CC(C)(C)CC3=O)SC21 (stereo not drawn)	0
CN1CCNC2SC(=C3C(=O)CC(c4ccco4)CC3=O)SC21 (stereo not drawn)	1.0
COc1ccccc1C1CC(=O)C(=C2SC3C(S2)N(C)CCN3C)C(=O)C1 (stereo not drawn)	0
CN1CCN(C)C2SC(=C3C(=O)CC(c4ccco4)CC3=O)SC21 (stereo not drawn)	0
CN1CCNC2SC(=C3C(=O)CC(c4ccccc4Cl)CC3=O)SC21 (stereo not drawn)	0
CC1CC(=O)C(=C2SC3C(S2)N(C)CCN3C)C(=O)C1 (stereo not drawn)	1.2
CCOc1ccc(C2CC(=O)C(=C3SC4C(S3)N(C)CCN4C)C(=O)C2)cc1 (stereo not drawn)	0.1
C=CCN1CCN(CC=C)C2(C)SC(=C3C(=O)CC(C)(C)CC3=O)SC12 (stereo not drawn)	1.2

---

- Test system: hepatic disorder caused by carbon tetrachloride
- protocol-summary: Effect of suppressing hepatic disorder caused by carbon tetrachloride (Test Example 1)
- Assay type: in vivo, mice (dd-strain, male)
- Set-up: key: 0 = healthy, 2 = slight, 4 = evident injury, 6 = serious injury
- conditions-used: 30 mg/kg p.o., 6 h before CCl4 0.05 ml/kg p.o.; 24 h after CCl4; mean of five mice; 0 healthy, 2 slightly affected, 4 evidently observed injury, 6 serious injury

molecule	Liver injury index
CCC1CCC(=O)C(=C2SC3C(S2)N(C)CCN3C)C1=O (stereo not drawn) [compound 25]	0.8
CCOc1ccc(C2CC(=O)C(=C3SC4N(C)CCN(C)C4(C)S3)C(=O)C2)cc1 (stereo not drawn) [compound 63]	0
CN1CCN(C)C2(C)SC(=C3C(=O)CC(c4cccs4)CC3=O)SC12 (stereo not drawn) [compound 105]	0
COc1cccc(C2CC(=O)C(=C3SC4C(S3)N(C)CCN4C)C(=O)C2)c1 (stereo not drawn) [compound 52]	0.1
CN1CCN(C)C2SC(=C3C(=O)CC(c4ccccc4)CC3=O)SC21 (stereo not drawn) [compound 26]	0
CCCN1CCN(CCC)C2SC(=C3C(=O)CC(c4ccccc4)C(C(=O)OCC)C3=O)SC21 (stereo not drawn) [compound 114]	2.2
CN1CCN(C)C2SC(=C3C(=O)CCCC3=O)SC21 (stereo not drawn) [compound 1]	0.2
CCOC(=O)C1C(=O)C(=C2SC3C(S2)N(C)CCN3C)C(=O)CC1c1ccc(OC)cc1 (stereo not drawn) [compound 103]	1.0
COc1ccc(C2CC(=O)C(=C3SC4C(S3)N(C)CCN4C)C(=O)C2)cc1OC (stereo not drawn) [compound 65]	1.6
CCCN1CCN(CCC)C2SC(=C3C(=O)CCCC3=O)SC21 (stereo not drawn) [compound 10]	0
CN1CCNC2SC(=C3C(=O)CC(C)(C)CC3=O)SC21.Cl.Cl (stereo not drawn) [compound 118]	0
Cc1cccc(C2CC(=O)C(=C3SC4C(S3)N(C)CCN4C)C(=O)C2)c1 (stereo not drawn) [compound 42]	0
CN1CCN(C)C2(C)SC(=C3C(=O)CC(C)(C)CC3=O)SC12 (stereo not drawn) [compound 12]	0.4
COc1ccc(C2CC(=O)C(=C3SC4C(S3)N(C)CCN4C)C(=O)C2)cc1 (stereo not drawn) [compound 122]	1.5
CN1CCN(C)C2SC(=C3C(=O)CC(c4cccs4)CC3=O)SC21 (stereo not drawn) [compound 82]	0.3
